Biological target: full-length human PKCι (Homo sapiens, UniProt P41743)
Construct: Recombinant, full-length human PKCι expressed in Sf21 insect cells is also commercially available; purchased; host or cells: Sf21 insect cells
Sequence (P41743 1-596): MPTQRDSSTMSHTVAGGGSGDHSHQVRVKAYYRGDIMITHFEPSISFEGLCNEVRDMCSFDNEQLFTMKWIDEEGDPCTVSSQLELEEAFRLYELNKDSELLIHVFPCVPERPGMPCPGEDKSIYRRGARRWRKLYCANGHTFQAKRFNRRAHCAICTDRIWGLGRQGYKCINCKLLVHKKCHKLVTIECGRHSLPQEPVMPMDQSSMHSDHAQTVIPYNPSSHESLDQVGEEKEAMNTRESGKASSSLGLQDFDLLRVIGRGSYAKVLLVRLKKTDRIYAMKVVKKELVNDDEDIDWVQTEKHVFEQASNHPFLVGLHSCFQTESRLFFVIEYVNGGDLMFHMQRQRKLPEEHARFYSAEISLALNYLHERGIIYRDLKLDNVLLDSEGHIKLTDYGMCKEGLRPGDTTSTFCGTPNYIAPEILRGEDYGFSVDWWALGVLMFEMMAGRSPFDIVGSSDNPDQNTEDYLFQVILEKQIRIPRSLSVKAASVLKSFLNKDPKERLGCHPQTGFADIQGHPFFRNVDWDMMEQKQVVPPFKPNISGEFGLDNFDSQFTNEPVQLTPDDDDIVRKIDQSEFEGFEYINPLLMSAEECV
Assay: PKCι IC50 IMAP fluorescence polarisation assay, full-length enzyme
Format: biochemical
Conditions: full length PKCi at 15 μM ATP; read-out: IC50 in IMAP assay against full length PKCi
pIC50: −log10 of the molar value.
MEASURE: pIC50

Below are worked cases with known answers.
COc1ccccc1C[C@H](N)CNc1nc(-c2ccncc2)nc2c(Br)c(C(C)(C)C)sc12 = 4.40 to 5.00
CCc1cc(-c2csc3c(NC[C@@H](N)Cc4ccccc4)nc(-c4ccncc4)nc23)no1 = 5.00 to 6.00
Cc1cc(Nc2csc3c(N[C@@H]4CCNC4)nc(-c4ccncc4F)nc23)no1 = 4.40 to 5.00

Please look at the following compound next.
pIC50 for `Clc1cnccc1-c1nc(N[C@@H]2CCNC2)c2sccc2n1` ?
5.00 to 6.00

###

target: full-length human PKCι (Homo sapiens, UniProt P41743); construct: Recombinant, full-length human PKCι expressed in Sf21 insect cells is also commercially available; purchased; host or cells: Sf21 insect cells; experiment: PKCι IC50 IMAP fluorescence polarisation assay, full-length enzyme; assay type: biochemical; details: full length PKCi at 15 μM ATP; read-out: IC50 in IMAP assay against full length PKCi
In this section, each of the molecules is paired with its reported IC50.

Below are worked cases with known answers.
Cc1c(C#CC(C)(C)O)sc2c(N[C@@H]3CCNC3)nc(-c3ccncc3)nc12 [compound 502] = 1 to 10 µM
N[C@H](CNc1nc(-c2ccncc2)nc2c(C#Cc3cc[nH]n3)csc12)Cc1ccccc1 [compound 549] = < 0.1 µM
CC(C)(C)c1sc2c(NC[C@@H](N)Cc3ccccc3)nc(-c3ccncc3)nc2c1-c1ccn[nH]1 [compound 468] = 1 to 10 µM

Please look at the following molecule next.
What measured IC50 is associated with NC(CNc1nc(-c2ccncc2F)nc2c(-c3ccoc3)csc12)Cc1ccccc1 (stereo in doubt) [compound 426] on full-length human PKCι (Homo sapiens, UniProt P41743)?
0.1 to 1 µM

###

biological target: kinase-domain human PKCι (Homo sapiens); construct: Recombinant, kinase-domain human PKCι is expressed and purified in-house; made in house; experiment: PKCι IC50 IMAP fluorescence polarisation assay, kinase-domain enzyme; type: biochemical; conditions: kinase domain PKCi at 2 μM ATP; read-out: IC50 in IMAP assay against kinase domain PKCi
pIC50: −log10 of the molar value.
MEASURE: pIC50

Cc1csc2c(OC[C@H](N)Cc3ccccc3)nc(-c3ccncc3)nc12 = 4.40 to 5.00
Cc1csc2c(N3CCNCC3)nc(-c3ccncc3)nc12 = 6.00 to 7.00
C[C@H](N)CNc1nc(-c2ccncc2)nc2c1sc1cccc(Cl)c12 = 6.00 to 7.00
c1ccc(-c2cc3nc(-c4ccncc4)nc(N4CCCNCC4)c3s2)cc1 = 5.00 to 6.00

What measured pIC50 is associated with `C[C@@H](N)CNc1nc(-c2ccncc2)nc2cc(-c3ccc(C(C)(C)C)cc3)sc12` on kinase-domain human PKCι (Homo sapiens)?
4.40 to 5.00

###

Target: kinase-domain human PKCι (Homo sapiens)
Construct: Recombinant, kinase-domain human PKCι is expressed and purified in-house; made in house
Sequence (P41743 254-522 limits assumed): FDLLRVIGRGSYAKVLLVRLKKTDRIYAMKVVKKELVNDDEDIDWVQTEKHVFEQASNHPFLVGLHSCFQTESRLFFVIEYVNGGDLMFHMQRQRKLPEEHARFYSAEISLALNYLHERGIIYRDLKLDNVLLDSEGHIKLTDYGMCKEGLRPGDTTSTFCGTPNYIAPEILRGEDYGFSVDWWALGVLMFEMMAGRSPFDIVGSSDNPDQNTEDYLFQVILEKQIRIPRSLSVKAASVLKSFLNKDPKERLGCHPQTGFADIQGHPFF
Assay: PKCι IC50 IMAP fluorescence polarisation assay, kinase-domain enzyme
Format: biochemical
Settings: kinase domain PKCi at 2 μM ATP; read-out: IC50 in IMAP assay against kinase domain PKCi (Activity)
MEASURE: IC50

Below are worked cases with known answers.
C[C@@H](N)CNc1nc(-c2ccncc2)nc2sc3c(c12)CCCC3 = 100 to 1000 nM
CC[C@@H](N)COc1nc(-c2ccncc2)nc2sc3c(c12)CCCC3 = 1000 to 10000 nM

IC50 for `c1cc(-c2nc(N3CCCNCC3)c3c4c(sc3n2)CCCCC4)ccn1` ?
100 to 1000 nM

Now the compound `C[C@H](N)COc1nc(-c2ccncc2)nc2sc3c(c12)CCCC3`
100 to 1000 nM

Now the compound `C[C@H](N)CNc1nc(-c2ccncc2)nc2sc3c(c12)CCCC3`
< 100 nM

Now the compound `N[C@@H](COc1nc(-c2ccncc2)nc2sc3c(c12)CCCC3)Cc1cccs1`
10000 to 40000 nM

Now the compound `C[C@H](N)CNc1nc(-c2cn[nH]c2)nc2sc3c(c12)CCCC3`
100 to 1000 nM

Now the compound `CC(C)[C@H](N)COc1nc(-c2ccncc2)nc2sc3c(c12)CCCC3`
1000 to 10000 nM

Now the compound `Cc1cccc(C[C@H](N)COc2nc(-c3ccncc3)nc3sc4c(c23)CCCC4)c1`
1000 to 10000 nM

###

In this section, each of the molecules is paired with its reported IC50.
target: kinase-domain human PKCι (Homo sapiens); construct: Recombinant, kinase-domain human PKCι is expressed and purified in-house; made in house; test: PKCι IC50 IMAP fluorescence polarisation assay, kinase-domain enzyme; format: biochemical; settings: kinase domain PKCi at 2 μM ATP; read-out: IC50 in IMAP assay against kinase domain PKCi (Activity)

IC50 for `NCCNc1nc(-c2ccnc(F)c2)nc2sc3c(c12)CCCC3` ?
10 to 40 µM

Now the molecule `CC(C)C[C@@H](N)COc1nc(-c2ccncc2)nc2sc3c(c12)CCCC3`
1 to 10 µM

Now the molecule `C[C@@H](N)COc1nc(-c2ccncc2)nc2sc3c(c12)CCCC3`
1 to 10 µM

Now the molecule `N[C@H](CCc1ccccc1)COc1nc(-c2ccncc2)nc2sc3c(c12)CCCC3`
10 to 40 µM

Now the molecule `FC(F)(F)c1ccc(CN2CCN(c3nc(-c4ccncc4)nc4sc5c(c34)CCCC5)CC2)cc1`
10 to 40 µM

Now the molecule `CCN1CCN(c2nc(-c3ccncc3)nc3sc4c(c23)CCCC4)CC1`
1 to 10 µM

Now the molecule `c1cc(-c2nc(OC[C@H]3CCCN3)c3c4c(sc3n2)CCCC4)ccn1`
1 to 10 µM

Now the molecule `N[C@H]1C[C@@H]1Nc1nc(-c2ccncc2)nc2sc3c(c12)CCCC3`
10 to 40 µM

Now the molecule `CC(C)Cc1csc2nc(-c3ccncc3)nc(NC[C@H](C)N)c12`
0.1 to 1 µM

###

Target: full-length human PKCι (Homo sapiens)
Construct: Recombinant, full-length human PKCι expressed in Sf21 insect cells is also commercially available; purchased; host or cells: Sf21 insect cells
Assay: PKCι IC50 IMAP fluorescence polarisation assay, full-length enzyme
Format: biochemical
Conditions: full length PKCi at 15 μM ATP; read-out: IC50 in IMAP assay against full length PKCi (Activity)
Description: Assays are based on the ability of PKCι to phosphorylate a commercially available peptide substrate in vitro. […] Recombinant, full-length human PKCι expressed in Sf21 insect cells is also commercially available. Recombinant, kinase-domain human PKCι is expressed and purified in-house. The procedure below explains how dose response curves for inhibitors of PKCι are obtained. Compounds to be tested are dissolved in 100% DMSO. […]
In this section, each of the compounds is paired with its reported IC50.

Below are worked cases with known answers.
COc1cnccc1-c1nc(NC[C@@H](N)Cc2ccccc2)c2c3c(sc2n1)CCCC3 = 10000 to 40000 nM
c1cc(-c2nc(NC[C@H]3CCCCN3)c3c4c(sc3n2)CCCC4)ccn1 = 1000 to 10000 nM
N[C@H](CNc1nc(-c2ccncc2)nc2sc3c(c12)CCSC3)Cc1ccccc1 = 100 to 1000 nM
Cc1cccc(C[C@H](N)CNc2nc(-c3ccncc3)nc3sc4c(c23)CCCC4)c1 = 100 to 1000 nM
CC(C)CN1CCc2c(sc3nc(-c4ccncc4)nc(NCCN)c23)C1 = 10000 to 40000 nM
CC(C)(C)C(=O)N1CCc2c(sc3nc(-c4ccncc4)nc(NCCN)c23)C1 = 10000 to 40000 nM

IC50 for `N[C@H](CNc1nc(-c2ccncc2)nc2sc3c(c12)CCCC3)Cc1ccncc1` ?
1000 to 10000 nM

Now the compound NC(CNc1nc(-c2ccncc2)nc2sc3c(c12)CCCC3)Cc1c[nH]c2ccccc12 (stereo in doubt)
1000 to 10000 nM
